test: viability loss in pontine glioma line – cell-based, SU-DIPG-XIII, MIPE5.0, CellTiter-Glo, qHTS, dose response (AID 1347064); details: CellTiter-Glo ATP luminescence;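 as to AC50: cells exposed to compound for 48 hours before the viability read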
Records with an inconclusive call do not appear. Active and inactive are the calls of the source. The limit is not given here; nearly all actives have AC50 up to about 23 µM.
Outcome codes: active, inactive

[[record]]
molecule = "CN1CCN(Cc2ccc(NC(=O)Nc3ccc(Oc4cc(NC(=O)C5CC5)ncn4)cc3)cc2C(F)(F)F)CC1"
class = "active"

[[record]]
molecule = "CCCc1cc(C)[nH]c(=O)c1CNC(=O)c1cc(-c2ccnc(N3CCN(C)CC3)c2)cc2c1cnn2C(C)C"
class = "inactive"

[[record]]
molecule = "C[C@H](CN(C)C)Oc1nc(Nc2cc3cccc(Cl)c3cn2)cnc1C#N"
class = "active"

[[record]]
molecule = "Cc1ccc(NC(=O)c2ccc3c(c2)OCCO3)cc1NC(=O)c1ccc2nc(OCCN3CCCC3)ccc2c1"
class = "active"

[[record]]
molecule = "CC1(COc2ccc3c(c2)ncn3-c2ccc3cccc(N4CCC(N)CC4)c3n2)COC1"
class = "active"

[[record]]
molecule = "C[C@H]1CNCCCN1S(=O)(=O)c1cccc2cncc(F)c12"
class = "inactive"

[[record]]
molecule = "CNC(=O)c1cccc2cc(Oc3ccnc4cc(OCC5(N)CC5)c(OC)cc34)ccc12"
class = "active"

[[record]]
molecule = "CC(=O)[C@]1(N)Cc2c(O)c3c(c(O)c2[C@@H](O[C@H]2C[C@H](O)[C@H](O)CO2)C1)C(=O)c1ccccc1C3=O"
class = "active"

[[record]]
molecule = "C=CC(=O)Nc1cccc(Nc2nc(Nc3ccc(N4CCN(C(C)=O)CC4)cc3OC)ncc2C(F)(F)F)c1"
class = "active"

[[record]]
molecule = "CN1CC[C@@H](c2c(O)cc(O)c3c(=O)cc(-c4ccccc4Cl)oc23)[C@@H](O)C1"
class = "active"

[[record]]
molecule = "Cc1ncc(Cl)cc1NCc1ccc(C(=O)NC(CC2CCCC2)C(=O)NC2CC2)s1 (stereo not drawn)"
class = "inactive"

[[record]]
molecule = "Cn1cncc1C(N)(c1ccc(Cl)cc1)c1ccc2c(c1)c(-c1cccc(Cl)c1)cc(=O)n2C (stereo not drawn)"
class = "active"

[[record]]
molecule = "CCCc1cc(C(=O)N[C@H](Cc2ccc(-c3cccc(OC(F)(F)F)c3)nc2)C(=O)N[C@@H]2CCNC2)sc1C"
class = "active"

[[record]]
molecule = "Cc1cn([C@@H]2C[C@@H](O)[C@H](CO)O2)c(=O)[nH]c1=O"
class = "inactive"

[[record]]
molecule = "CCC(C(=O)O)C1CCC(C)C(C(C)C(O)C(C)C(=O)C(CC)C2OC3(C=CC(O)[C@@]4(CC[C@](C)(C5CC[C@@](O)(CC)C(C)O5)O4)O3)C(C)CC2C)O1 (stereo partly drawn)"
class = "active"

[[record]]
molecule = "NCc1c[nH]c(=S)n1[C@H]1CCc2c(F)cc(F)cc2C1"
class = "inactive"

[[record]]
molecule = "C/C(=N\\NC(=S)N1CCC1)c1ccccn1"
class = "active"

[[record]]
molecule = "COc1ccc2c(OCc3nnc4ccc(-c5ccccc5)nn34)ccnc2c1"
class = "inactive"


Taken from PubChem BioAssay.
